From: PubChem BioAssay (EPA / NIEHS)

- PROTOCOL_TEXT: TOX21_p53_BLA_p2_viability: Viability Assessment in the Tox21 HCT-116 p53 Agonism Beta-lactamase Assay, Phase 2 (AID 2283591);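 further: compound exposure lasted 16 h at 37 °C; actives lower the ATP signal meaning cytotoxicity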
Results filed as inconclusive are left out. Activity calls are given as the source filed them. How the source made its calls: active means hit-call score of the fitted dose curve at least 0.9, where 1 is the maximum; inconclusive means response in the unintended direction; inactive means score below 0.9.
Give one outcome, nothing more. List: active, inactive

Exercise: Can you look up the reported call for Cc1cc(Cl)ccc1OCC(=O)O for me?
Key: inactive

Exercise: Can you look up the reported call for CNC(=O)ON=CC(C)(C)SC for me?
Key: inactive

Exercise: Can you look up the reported call for Fc1ccc(Oc2ccnc3cc(Cl)cc(Cl)c23)cc1 for me?
Key: inactive

Exercise: Can you look up the reported call for COP(=S)(OC)Oc1nc(Cl)c(Cl)cc1Cl for me?
Key: inactive

Exercise: Can you look up the reported call for Oc1ccccc1-c1ccccc1 for me?
Key: inactive

Exercise: Can you look up the reported call for C=CCC1=C(C)C(OC(=O)C2C(C=C(C)C)C2(C)C)CC1=O (stereo not given) for me?
Key: inactive

Exercise: Can you look up the reported call for COc1nc(C)nc(NC(=O)NS(=O)(=O)c2ccccc2Cl)n1 for me?
Key: inactive

Exercise: Can you look up the reported call for CCNc1nc(Cl)nc(NCC)n1 for me?
Key: inactive

Exercise: Can you look up the reported call for CN(C)C(=S)SSC(=S)N(C)C for me?
Key: inactive

Exercise: Can you look up the reported call for CCON=C(CC)C1=C(O)CC(c2c(C)cc(C)cc2C)CC1=O (stereo not given) for me?
Key: inactive

Exercise: Can you look up the reported call for CCOc1cc(Oc2ccc(C(F)(F)F)cc2Cl)ccc1[N+](=O)[O-] for me?
Key: inactive

Exercise: Can you look up the reported call for C=CC1(C)OC(=O)N(c2cc(Cl)cc(Cl)c2)C1=O (stereo not given) for me?
Key: inactive

Exercise: Can you look up the reported call for N#CC(CCc1ccc(Cl)cc1)(Cn1cncn1)c1ccccc1 (stereo not given) for me?
Key: active

Exercise: Can you look up the reported call for O=C(Nc1ccccc1)Nc1ccnc(Cl)c1 for me?
Key: inactive

Exercise: Can you look up the reported call for CCCCNC(=O)OCC#CI for me?
Key: inactive

---

- Read-out: CD40, CD40 (gene 958)
- PROTOCOL_TEXT: BSK_SAg_CD40: BioMAP Diversity Plus: SAg Assay for CD40 Biomarker Activity (AID 2283088)
- CONDITION_LABEL: primary human HUVEC with PBMC; actives raise or lower the signal
Calls of active or inactive are those of the source. How the source made its calls: active means hit-call score of the fitted dose curve at least 0.9, where 1 is the maximum; inactive means score below 0.9.
Give one outcome, nothing more. List: yes (1) (active), no (0) (inactive)

Exercise: Can you look up the reported call for COP(N)(=O)SC (configuration not stated) for me?
Key: no (0)

Exercise: Can you look up the reported call for CCCN(CCC)c1c([N+](=O)[O-])cc(S(N)(=O)=O)cc1[N+](=O)[O-] for me?
Key: yes (1)

Exercise: Can you look up the reported call for O=C(O)COc1nc(Cl)c(Cl)cc1Cl for me?
Key: no (0)

Exercise: Can you look up the reported call for C#CCOS(=O)OC1CCCCC1Oc1ccc(C(C)(C)C)cc1 (configuration not stated) for me?
Key: yes (1)

Exercise: Can you look up the reported call for C=CCC1=C(C)[C@@H](OC(=O)[C@@H]2[C@@H](C=C(C)C)C2(C)C)CC1=O for me?
Key: yes (1)

Exercise: Can you look up the reported call for CN(C)C(=S)SSC(=S)N(C)C for me?
Key: yes (1)

Exercise: Can you look up the reported call for N#CC(CCc1ccc(Cl)cc1)(Cn1cncn1)c1ccccc1 (configuration not stated) for me?
Key: no (0)

Exercise: Can you look up the reported call for COc1ccc(C(c2ccc(OC)cc2)C(Cl)(Cl)Cl)cc1 for me?
Key: yes (1)

Exercise: Can you look up the reported call for Cc1ccc(-c2c(Cl)nc(C#N)n2S(=O)(=O)N(C)C)cc1 for me?
Key: yes (1)

Exercise: Can you look up the reported call for CCOc1cc(Oc2ccc(C(F)(F)F)cc2Cl)ccc1[N+](=O)[O-] for me?
Key: no (0)

Exercise: Can you look up the reported call for Cc1cc(Cl)ccc1OCC(=O)O for me?
Key: no (0)

Exercise: Can you look up the reported call for CNC(=O)ON=CC(C)(C)SC for me?
Key: no (0)
